# System Tested: galectin-1 (Homo sapiens, UniProt P09382)
# Sequence (P09382 whole entry): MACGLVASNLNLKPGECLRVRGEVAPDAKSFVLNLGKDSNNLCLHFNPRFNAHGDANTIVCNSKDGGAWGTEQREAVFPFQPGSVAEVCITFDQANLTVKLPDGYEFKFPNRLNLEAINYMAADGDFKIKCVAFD
# Assay Info: Fluorescence anisotropy assay, affinity for galectin-1
# Test Parameters: compound as inhibitor of the interaction between galectin and a fluorescein tagged saccharide probe; read-out: Gal-1 Kd
pKd: −log10 of the molar value.
Response key: met means pKd >= 7; not met means pKd < 7.

• OCC1O[C@@H](c2ccnn2-c2cc(Cl)ccc2C(F)(F)F)C(O)C(n2cc(-c3csc(O)n3)nn2)[C@H]1O (stereo partly shown) = met
• C=Cc1cc([C@@H]2OC(CO)[C@H](O)C(n3cc(-c4nc(Cl)cs4)nn3)C2OC)n(-c2cc(Cl)ccc2C(F)(F)F)n1 (stereo partly shown) = not met
• COC1C(n2cc(-c3nc(Cl)cs3)nn2)[C@@H](O)C(CO)O[C@H]1c1cc(Cl)nn1-c1cc(Cl)ccc1C(F)(F)F (stereo partly shown) = met
• COC1C(n2cc(-c3ncc(C)s3)nn2)[C@@H](O)C(CO)O[C@H]1c1ccnn1-c1cc(Cl)ccc1C(F)(F)F (stereo partly shown) = not met
• COC1[C@@H](n2cc(-c3nc(Cl)cs3)nn2)[C@@H](O)C(CO)O[C@H]1c1ccnn1-c1cc(Br)c(F)cc1C(F)(F)F (stereo partly shown) = met
• COC1C(n2cc(-c3nc(Cl)cs3)nn2)[C@@H](O)C(CO)O[C@H]1c1cc(C(N)=O)nn1-c1cc(Cl)ccc1C(F)(F)F (stereo partly shown) = not met
• COC1C(n2cc(-c3csc(O)n3)nn2)[C@@H](O)C(CO)O[C@H]1c1ccnn1-c1cc(Br)c(F)cc1C(F)(F)F (stereo partly shown) = met
• COC1C(n2cc(-c3nc(Cl)cs3)nn2)[C@@H](O)C(CO)O[C@H]1c1cc(C(C)C)nn1-c1cc(Cl)ccc1C(F)(F)F (stereo partly shown) = not met
• COC1C(n2cc(-c3nc(C)cs3)nn2)[C@@H](O)C(CO)O[C@H]1c1ccnn1-c1cc(Cl)ccc1C(F)(F)F (stereo partly shown) = not met
• COC1C(n2cc(-c3nc(Cl)cs3)nn2)[C@@H](O)C(CO)O[C@H]1c1ccnn1-c1ccc2nc(C)sc2c1 (stereo partly shown) = met

* * *

# System Tested: UniProt P09382
# Assay Info: Fluorescence anisotropy assay, affinity for galectin-1
# Test Parameters: compound as inhibitor of the interaction between galectin and a fluorescein tagged saccharide probe; read-out: Gal-1 Kd
pKd: −log10 of the molar value.
Observable: pKd

* COC1C(n2cc(-c3csc(O)n3)nn2)[C@@H](O)C(CO)O[C@H]1c1ccnn1-c1cc(Cl)ccc1C(F)(F)F (stereo partly shown) | 7.51
* COC1C(n2cc(-c3nc(Cl)cs3)nn2)[C@@H](O)C(CO)O[C@H]1c1cc(C)nn1-c1ccc2nc(C)sc2c1 (stereo partly shown) | 7.17
* COC1C(n2cc(-c3csc(O)n3)nn2)[C@@H](O)C(CO)O[C@H]1c1ccnn1-c1cc(Cl)c(Cl)cc1C(F)(F)F (stereo partly shown) | 7.59
* OCC1O[C@@H](c2ccnn2-c2cc(Cl)ccc2C(F)(F)F)C(O)C(n2cc(-c3nccs3)nn2)[C@H]1O (stereo partly shown) | 6.68
* COC1C(n2cc(-c3nc(Cl)cs3)nn2)[C@@H](O)C(CO)O[C@H]1c1ccnn1-c1cc(Br)cnc1C(F)(F)F (stereo partly shown) | 7.49
* COC1C(n2cc(-c3nc(Cl)cs3)nn2)[C@@H](O)C(CO)O[C@H]1c1ccnn1-c1cc(Br)ccc1C(F)(F)F (stereo partly shown) | 7.51
* COC1C(n2cc(-c3nc(Cl)cs3)nn2)[C@@H](O)C(CO)O[C@H]1c1cc(C(=O)O)nn1-c1cc(Cl)ccc1C(F)(F)F (stereo partly shown) | 6.38
